# Test system: Monocyte
# measurement.notes: Inhibition of IL1 biosynthesis in human monocytes
# Type: functional, cell-based
property.label: IC50 (nM)
Entry rule: numbers only, all in nM.

- molecule: "CCC[C@@H](OC(C)=O)C1=C(Br)/C(=C/Br)OC1=O"
  assay.target: "Monocyte"
  result.unit: "nM"
  observed.value: 3000
- molecule: "CCCCC1=C(Br)C(=C(Br)Br)OC1=O"
  assay.target: "Monocyte"
  result.unit: "nM"
  observed.value: 3000
- molecule: "CCC[C@@H](O)C1=C(Br)/C(=C/Br)OC1=O"
  assay.target: "Monocyte"
  result.unit: "nM"
  observed.value: 1500

Attention now turns to another entry.
In: Item CCC(CCC(=O)C(Br)=C(Br)Br)OC(C)=O (centres undefined) : provide IC50
Out: 2000

* * *

# System: Bacillus subtilis
# measurement.notes: Antimicrobial activity against Bacillus subtilis at 1 ug
# Assay type: functional, organism-based
Calls of active or inactive are those of the source. The calls are words filed in the database; no cut-off is given here.
property.label: Activity

- compound: "CCCCC1=C(Br)C(=C(Br)Br)OC1=O"
  Activity: "inactive"
- compound: "CCC[C@@H](OC(C)=O)C1=C(Br)C(=C(Br)Br)OC1=O"
  Activity: "Active"
- compound: "CCC[C@@H](O)C1=C(Br)/C(=C\\Br)OC1=O [HYDROXYFIMBROLIDE]"
  Activity: "Active"
- compound: "CCC[C@@H](OC(C)=O)C1=C(Br)/C(=C\\Br)OC1=O [ACETOXYFIMBROLIDE]"
  Activity: "Active"
- compound: "CCC[C@@H](O)C1=C(Br)/C(=C/Br)OC1=O"
  Activity: "Active"
- compound: "CCC[C@@H](OC(C)=O)C1=C(Br)/C(=C/Br)OC1=O"
  Activity: "Active"
- compound: "CCCCC1=C(Br)C(OC)(C(Br)Br)OC1=O (stereo not given)"
  Activity: "inactive"
- compound: "CCC[C@@H](OC(C)=O)C1=C(Br)[C@](OC)(C(Br)Br)OC1=O"
  Activity: "inactive"

In: Identify measured Activity corresponding to CCCCCCCC/C=C(\Br)C(O)C(Br)Br (stereo not given)
Out: inactive

In: Answer with reported Activity of CCC[C@@H](OC(C)=O)C1=C(Br)[C@@](C)(OC)OC1=O
Out: inactive

* * *

Reported selectivity ratio is given for each of the following compounds.
# measurement.notes: Selectivity index, ratio of IC50 for human KB cells to IC50 for Plasmodium falciparum D6
# Assay type: toxicity, cell-based
# setup.conditions: KB cells versus Plasmodium falciparum D6, read-out: Ratio IC50

Reference set (6 entries):
- compound: "C=C[C@H]1CN2CC[C@H]1C[C@H]2[C@H](O)c1ccnc2ccc(OC)cc12"
  selectivity ratio: "> 1830"
- compound: "CCC[C@@H](OC(C)=O)C1=C(Br)/C(=C/I)OC1=O"
  selectivity ratio: "< 1"
- compound: "CCC[C@@H](OC(C)=O)C1=C(Br)[C@](OC)(C(Br)Br)OC1=O"
  selectivity ratio: 2
- compound: "OC(c1cc(C(F)(F)F)nc2c(C(F)(F)F)cccc12)C1CCCCN1 (stereo not given)"
  selectivity ratio: 710
- compound: "CCC[C@@H](O)C1=C(Br)/C(=C/I)OC1=O"
  selectivity ratio: "< 1"
- compound: "CCC[C@@H](OC(C)=O)C1=C(Br)[C@@](OC)(C(Br)Br)OC1=O"
  selectivity ratio: 1

In: Quick one: give measured selectivity ratio for CCC[C@@H](O)C1=C(Br)/C(=C/Cl)OC1=O
Out: < 1

In: Recall and state the measured selectivity ratio for C[C@@H]1CC[C@H]2[C@@H](C)C(=O)O[C@@H]3O[C@@]4(C)CC[C@@H]1[C@]32OO4 .
Out: > 18200

In: Tell me selectivity ratio reported for CCC[C@@H](O)C1=C(Br)C(=C(Br)Br)OC1=O
Out: < 1

In: Quick one: give measured selectivity ratio for CCC[C@@H](OC(C)=O)C1=C(Br)C(=C(Br)Br)OC1=O
Out: < 1
